Tested on: NCI-H460 human epithelial lung carcinoma cells
Test description: In vitro cytotoxicity (WST-1 cell viability)
Type: cell-based
Experimental conditions: Table 11; 48-h continuous exposure; mean of three independent experiments; read-out: Drug concentration that inhibits 50% of cell viability (IC50), NCI-H460
Observation type: IC50 (µM)
Use µM as the unit, but write only the number.

Using the record for CCc1c2c(nc3ccc(O)cc13)-c1cc3c(c(=O)n1C2)COC(=O)[C@]3(O)CC [SN38, 7-ethyl-10-hydroxy-camptothecin, reference compound] , report its IC50.
0.022

# credit: patent US8410045B2
